Test system: HeLa Kyoto
measurementNotes: solubility in G1/S (NP-40 vs SDS abundance) (log2 ratio); higher = more soluble
recordedConditions: cell cycle stage: G1/S
For each entry below, report its solubility in G1/S (log2) value.

### Prompt Param item = MSEESDSLRTSPSVASLSENELPPPPEPPGYVCSLTEDLVTKAREELQEKPEWRLRDVQALRDMVRKEYPNLSTSLDDAFLLRFLRARKFDYDRALQLLVNYHSCRRSWPEVFNNLKPSALKDVLASGFLTVLPHTDPRGCHVVCIRPDRWIPSNYPITENIRAIYLTLEKLIQSEETQVNGIVILADYKGVSLSKASHFGPFIAKKVIGILQDGFPIRIKAVHVVNEPRIFKGIFAIIKPFLKEKIANRFFLHGSDLNSLHTNLPRSILPKEYGGTAGELDTATWNAVLLASEDDFVKEFCQPVPACDSILGQTLLPEGLTSDAQCDDSLRAVKSQLYSCY [TTPAL] ; retrieve measured solubility in G1/S (log2).
### Response 0.206

### Prompt Query: solubility in G1/S (log2); subject: MAGVGAGPLRAMGRQALLLLALCATGAQGLYFHIGETEKRCFIEEIPDETMVIGNYRTQMWDKQKEVFLPSTPGLGMHVEVKDPDGKVVLSRQYGSEGRFTFTSHTPGDHQICLHSNSTRMALFAGGKLRVHLDIQVGEHANNYPEIAAKDKLTELQLRARQLLDQVEQIQKEQDYQRYREERFRLTSESTNQRVLWWSIAQTVILILTGIWQMRHLKSFFEAKKLV [TMED4]
### Response 0.179

### Prompt Reported solubility in G1/S (log2) for MALLALLLVVALPRVWTDANLTARQRDPEDSQRTDEGDNRVWCHVCERENTFECQNPRRCKWTEPYCVIAAVKIFPRFFMVAKQCSAGCAAMERPKPEEKRFLLEEPMPFFYLKCCKIRYCNLEGPPINSSVFKEYAGSMGESCGGLWLAILLLLASIAAGLSLS [LY6K] : what is it?
### Response 0.0392

* * *

Tested on: HeLa Kyoto
measurementNotes: thermal stability score vs G1/S (z-score of summed log2 fold changes over temperatures); higher = more thermally stable than in G1/S
recordedConditions: cell cycle stage: early G1 (4.5 h after nocodazole release)
measure: thermal stability score

### Prompt Need thermal stability score, item MPSKSLVMEYLAHPSTLGLAVGVACGMCLGWSLRVCFGMLPKSKTSKTHTDTESEASILGDSGEYKMILVVRNDLKMGKGKVAAQCSHAAVSAYKQIQRRNPEMLKQWEYCGQPKVVVKAPDEETLIALLAHAKMLGLTVSLIQDAGRTQIAPGSQTVLGIGPGPADLIDKVTGHLKLY [PTRH2]
### Response -0.625

### Prompt For the sequence MMRFMLLFSRQGKLRLQKWYLATSDKERKKMVRELMQVVLARKPKMCSFLEWRDLKVVYKRYASLYFCCAIEGQDNELITLELIHRYVELLDKYFGSVCELDIIFNFEKAYFILDEFLMGGDVQDTSKKSVLKAIEQADLLQEEDESPRSVLEEMGLA [AP1S1] , what thermal stability score is on record?
### Response -1.3

### Prompt Given the entry MASSDIQVKELEKRASGQAFELILSPRSKESVPEFPLSPPKKKDLSLEEIQKKLEAAEERRKSHEAEVLKQLAEKREHEKEVLQKAIEENNNFSKMAEEKLTHKMEANKENREAQMAAKLERLREKDKHIEEVRKNKESKDPADETEAD [STMN1] , report its measured thermal stability score.
### Response -6.5

### Prompt Requested field: thermal stability score. Item: MAPRLCSISVTARRLLGGPGPRAGDVASAAAARFYSKDNEGSWFRSLFVHKVDPRKDAHSTLLSKKETSNLYKIQFHNVKPEYLDAYNSLTEAVLPKLHLDEDYPCSLVGNWNTWYGEQDQAVHLWRFSGGYPALMDCMNKLKNNKEYLEFRRERSQMLLSRRNQLLLEFSFWNEPQPRMGPNIYELRTYKLKPGTMIEWGNNWARAIKYRQENQEAVGGFFSQIGELYVVHHLWAYKDLQSREETRNAAWRKRGWDENVYYTVPLVRHMESRIMIPLKISPLQ [NIPSNAP1]
### Response -0.403

* * *

Hi there, I'd appreciate the recorded melting temperature for every entry that follows.
System: HeLa Kyoto
measurementNotes: melting temperature (median over replicates), in situ; higher = more thermally stable
recordedConditions: cell cycle stage: mitosis
Unit °C implied. Number only.

### Prompt For MEDPQSKEPAGEAVALALLESPRPEGGEEPPRPSPEETQQCKFDGQETKGSKFITSSASDFSDPVYKEIAITNGCINRMSKEELRAKLSEFKLETRGVKDVLKKRLKNYYKKQKLMLKESNFADSYYDYICIIDFEATCEEGNPPEFVHEIIEFPVVLLNTHTLEIEDTFQQYVRPEINTQLSDFCISLTGITQDQVDRADTFPQVLKKVIDWMKLKELGTKYKYSLLTDGSWDMSKFLNIQCQLSRLKYPPFAKKWINIRKSYGNFYKVPRSQTKLTIMLEKLGMDYDGRPHCGLDDSKNIARIAVRMLQDGCELRINEKMHAGQLMSVSSSLPIEGTPPPQMPHFRK [ERI1] , what is its reported melting temperature?
### Response 49.9

### Prompt Given the sequence MSLFGTTSGFGTSGTSMFGSATTDNHNPMKDIEVTSSPDDSIGCLSFSPPTLPGNFLIAGSWANDVRCWEVQDSGQTIPKAQQMHTGPVLDVCWSDDGSKVFTASCDKTAKMWDLSSNQAIQIAQHDAPVKTIHWIKAPNYSCVMTGSWDKTLKFWDTRSSNPMMVLQLPERCYCADVIYPMAVVATAERGLIVYQLENQPSEFRRIESPLKHQHRCVAIFKDKQNKPTGFALGSIEGRVAIHYINPPNPAKDNFTFKCHRSNGTNTSAPQDIYAVNGIAFHPVHGTLATVGSDGRFSFWDKDARTKLKTSEQLDQPISACCFNHNGNIFAYASSYDWSKGHEFYNPQKKNYIFLRNAAEELKPRNKK [RAE1] , what is its reported melting temperature?
### Response 49.1

### Prompt For the sequence MSRYLRPPNTSLFVRNVADDTRSEDLRREFGRYGPIVDVYVPLDFYTRRPRGFAYVQFEDVRDAEDALHNLDRKWICGRQIEIQFAQGDRKTPNQMKAKEGRNVYSSSRYDDYDRYRRSRSRSYERRRSRSRSFDYNYRRSYSPRNSRPTGRPRRSRSHSDNDRFKHRNRSFSRSKSNSRSRSKSQPKKEMKAKSRSRSASHTKTRGTSKTDSKTHYKSGSRYEKESRKKEPPRSKSQSRSQSRSRSKSRSRSWTSPKSSGH [SRSF10] , what melting temperature is on record?
### Response 50.2

### Prompt Which melting temperature value is on record for MEAVLNELVSVEDLLKFEKKFQSEKAAGSVSKSTQFEYAWCLVRSKYNDDIRKGIVLLEELLPKGSKEEQRDYVFYLAVGNYRLKEYEKALKYVRGLLQTEPQNNQAKELERLIDKAMKKDGLVGMAIVGGMALGVAGLAGLIGLAVSKSKS [FIS1] ?
### Response 53.8

### Prompt What measured melting temperature goes with MNWELLLWLLVLCALLLLLVQLLRFLRADGDLTLLWAEWQGRRPEWELTDMVVWVTGASSGIGEELAYQLSKLGVSLVLSARRVHELERVKRRCLENGNLKEKDILVLPLDLTDTGSHEAATKAVLQEFGRIDILVNNGGMSQRSLCMDTSLDVYRKLIELNYLGTVSLTKCVLPHMIERKQGKIVTVNSILGIISVPLSIGYCASKHALRGFFNGLRTELATYPGIIVSNICPGPVQSNIVENSLAGEVTKTIGNNGDQSHKMTTSRCVRLMLISMANDLKEVWISEQPFLLVTYLWQYMPTWAWWITNKMGKKRIENFKSGVDADSSYFKIFKTKHD [DHRS7] ?
### Response 56.6

* * *

Tested on: HeLa Kyoto
measurementNotes: solubility in G1/S (NP-40 vs SDS abundance) (log2 ratio); higher = more soluble
recordedConditions: cell cycle stage: G1/S
measure: solubility in G1/S (log2)
Write no unit; give the number alone.

### Prompt Can you share its solubility in G1/S (log2)? I mean this sequence: MSTAQSLKSVDYEVFGRVQGVCFRMYTEDEARKIGVVGWVKNTSKGTVTGQVQGPEDKVNSMKSWLSKVGSPSSRIDRTNFSNEKTISKLEYSNFSIRY [ACYP2]
### Response 0.215

### Prompt Please report the recorded solubility in G1/S (log2) for MAASGKLSTCRLPPLPTIREIIKLLRLQAAKQLSQNFLLDLRLTDKIVRKAGNLTNAYVYEVGPGPGGITRSILNADVAELLVVEKDTRFIPGLQMLSDAAPGKLRIVHGDVLTFKVEKAFSESLKRPWEDDPPNVHIIGNLPFSVSTPLIIKWLENISCRDGPFVYGRTQMTLTFQKEVAERLAANTGSKQRSRLSVMAQYLCNVRHIFTIPGQAFVPKPEVDVGVVHFTPLIQPKIEQPFKLVEKVVQNVFQFRRKYCHRGLRMLFPEAQRLESTGRLLELADIDPTLRPRQLSISHFKSLCDVYRKMCDEDPQLFAYNFREELKRRKSKNEEKEEDDAENYRL [TFB1M] .
### Response -0.318

### Prompt What value of solubility in G1/S (log2) has been reported for the following sequence? MASGQGPGPPRQECGEPALPSASEEQVAQDTEEVFRSYVFYRHQQEQEAEGVAAPADPEMVTLPLQPSSTMGQVGRQLAIIGDDINRRYDSEFQTMLQHLQPTAENAYEYFTKIATSLFESGINWGRVVALLGFGYRLALHVYQHGLTGFLGQVTRFVVDFMLHHCIARWIAQRGGWVAALNLGNGPILNVLVVLGVVLLGQFVVRRFFKS [BAK1]
### Response -0.215
